Recorded values, source ChEMBL document CHEMBL2321783.

Provide the reported pEC50 of each item.
target: Melanocortin receptor 4 (Mus musculus, UniProt P56450); assay: Agonist activity at mouse MC4 receptor expressed in HEK293 cells after 6 hrs by cAMP-based beta-galactosidase reporter gene assay; assay type: functional, cell-based; details: hek293
Sequence (P56450 whole entry): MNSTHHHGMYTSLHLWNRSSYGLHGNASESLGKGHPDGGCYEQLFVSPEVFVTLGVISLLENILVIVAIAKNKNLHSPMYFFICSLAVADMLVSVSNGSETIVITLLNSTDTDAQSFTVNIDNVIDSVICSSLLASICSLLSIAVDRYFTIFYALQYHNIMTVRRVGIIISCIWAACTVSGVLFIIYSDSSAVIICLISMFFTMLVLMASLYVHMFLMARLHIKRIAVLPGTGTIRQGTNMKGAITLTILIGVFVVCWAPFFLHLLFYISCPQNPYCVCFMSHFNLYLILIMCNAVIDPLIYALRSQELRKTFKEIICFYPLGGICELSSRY
Numbers only, as −log10 of the molar value.

chemical_structure=C[C@@H]1NC(=O)[C@H](CC(N)=O)NC(=O)[C@H](Cc2ccc3ccccc3c2)N2C[C@H](CCCNC(=N)N)NC(=O)[C@H](CSCC2=O)NC(=O)[C@@H](Cc2ccccc2)NC(=O)[C@H](Cc2c[nH]cn2)NC(=O)[C@@H](NC(=O)[C@@H](N)Cc2ccc(O)cc2)CSSC[C@@H](C(=O)N[C@@H](Cc2ccc(O)cc2)C(N)=O)NC(=O)[C@H](Cc2ccccc2)NC1=O measured_target="Melanocortin receptor 4 (Mus musculus, UniProt P56450)" recorded_result=6.66

Give pEC50 for all compounds that follow.
1. C[C@@H]1NC(=O)[C@H](CC(N)=O)NC(=O)[C@H](Cc2c[nH]c3ccccc23)N2C[C@H](CCCNC(=N)N)NC(=O)[C@H](CSCC2=O)NC(=O)[C@@H](Cc2ccccc2)NC(=O)[C@H](Cc2ccccc2)NC(=O)[C@@H](NC(=O)[C@@H](N)Cc2ccc(O)cc2)CSSC[C@@H](C(=O)N[C@@H](Cc2ccc(O)cc2)C(N)=O)NC(=O)[C@H](Cc2ccccc2)NC1=O
2. C[C@@H]1NC(=O)[C@@H](NC(=O)[C@@H](N)Cc2ccc(O)cc2)CSSC[C@@H](C(=O)N[C@@H](Cc2ccc(O)cc2)C(N)=O)NC(=O)[C@H](Cc2ccccc2)NC(=O)[C@H](C)NC(=O)[C@H](CC(N)=O)NC(=O)[C@H](Cc2c[nH]c3ccccc23)N2C[C@H](CCCNC(=N)N)NC(=O)[C@H](CSCC2=O)NC(=O)[C@@H](Cc2ccccc2)NC1=O

1: 6.54; 2: 6.15
